These entries and their values trace back to patent US20050003420.

- TEST_SYSTEM: T1, BsoBI D246C (UniProt P70985 P70985:1-323, D246C)
- T1 sequence: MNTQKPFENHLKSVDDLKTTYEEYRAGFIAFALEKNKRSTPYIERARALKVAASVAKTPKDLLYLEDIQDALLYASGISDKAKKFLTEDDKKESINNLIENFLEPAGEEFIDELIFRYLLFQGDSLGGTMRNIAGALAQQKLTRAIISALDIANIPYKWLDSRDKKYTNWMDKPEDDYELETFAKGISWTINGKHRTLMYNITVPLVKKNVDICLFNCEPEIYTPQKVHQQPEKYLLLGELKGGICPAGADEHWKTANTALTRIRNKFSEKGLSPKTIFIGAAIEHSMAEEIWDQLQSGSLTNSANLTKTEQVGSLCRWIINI
- MEASUREMENT_PROTOCOL: filter; 4 mM CaCl2; ±4
- EXPERIMENTAL_CONDITIONS: chain copies: 2 inferred; label: 33P 5' end
MEASURE: Kd (nM)
Numeric only. Scale: nM

Inquiry: Query: Kd; subject: S2 (CCCGGG) (dsDNA) DNA 1: GAGTGTTATGGGTAGCCCGGGTGAAGTGGGAATATC DNA 2: GATATTCCCACTTCACCCGGGCTACCCATAACACTC
Reply text: 0.03
